# IC50 per entry
Biological target: T1, αvβ6 integrin (purified, captured on the ELISA plate), P06756
T1 chain 1: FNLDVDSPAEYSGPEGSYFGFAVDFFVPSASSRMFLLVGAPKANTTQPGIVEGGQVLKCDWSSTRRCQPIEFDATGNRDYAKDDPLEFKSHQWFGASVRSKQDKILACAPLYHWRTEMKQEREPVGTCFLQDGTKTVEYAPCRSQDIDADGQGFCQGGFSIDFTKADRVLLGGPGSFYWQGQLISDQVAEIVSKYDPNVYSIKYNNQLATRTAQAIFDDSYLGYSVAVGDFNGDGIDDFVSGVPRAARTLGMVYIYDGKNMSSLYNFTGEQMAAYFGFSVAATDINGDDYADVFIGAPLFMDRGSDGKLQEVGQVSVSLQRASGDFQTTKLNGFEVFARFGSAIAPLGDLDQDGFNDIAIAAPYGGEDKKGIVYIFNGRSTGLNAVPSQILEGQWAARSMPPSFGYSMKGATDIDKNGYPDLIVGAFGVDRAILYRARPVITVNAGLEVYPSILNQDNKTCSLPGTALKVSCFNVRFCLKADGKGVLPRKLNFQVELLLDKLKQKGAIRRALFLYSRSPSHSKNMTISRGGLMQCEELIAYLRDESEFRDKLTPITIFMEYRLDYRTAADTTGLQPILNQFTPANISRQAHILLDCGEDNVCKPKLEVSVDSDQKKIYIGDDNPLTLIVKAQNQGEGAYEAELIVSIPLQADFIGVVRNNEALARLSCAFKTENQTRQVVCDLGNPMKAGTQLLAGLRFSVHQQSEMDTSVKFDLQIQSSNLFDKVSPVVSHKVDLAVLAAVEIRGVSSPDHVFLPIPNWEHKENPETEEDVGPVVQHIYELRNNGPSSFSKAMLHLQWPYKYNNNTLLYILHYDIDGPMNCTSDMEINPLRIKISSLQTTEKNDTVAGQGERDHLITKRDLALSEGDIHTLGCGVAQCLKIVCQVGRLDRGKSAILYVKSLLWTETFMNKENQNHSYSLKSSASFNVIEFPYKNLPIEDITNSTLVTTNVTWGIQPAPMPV
T1 chain 2: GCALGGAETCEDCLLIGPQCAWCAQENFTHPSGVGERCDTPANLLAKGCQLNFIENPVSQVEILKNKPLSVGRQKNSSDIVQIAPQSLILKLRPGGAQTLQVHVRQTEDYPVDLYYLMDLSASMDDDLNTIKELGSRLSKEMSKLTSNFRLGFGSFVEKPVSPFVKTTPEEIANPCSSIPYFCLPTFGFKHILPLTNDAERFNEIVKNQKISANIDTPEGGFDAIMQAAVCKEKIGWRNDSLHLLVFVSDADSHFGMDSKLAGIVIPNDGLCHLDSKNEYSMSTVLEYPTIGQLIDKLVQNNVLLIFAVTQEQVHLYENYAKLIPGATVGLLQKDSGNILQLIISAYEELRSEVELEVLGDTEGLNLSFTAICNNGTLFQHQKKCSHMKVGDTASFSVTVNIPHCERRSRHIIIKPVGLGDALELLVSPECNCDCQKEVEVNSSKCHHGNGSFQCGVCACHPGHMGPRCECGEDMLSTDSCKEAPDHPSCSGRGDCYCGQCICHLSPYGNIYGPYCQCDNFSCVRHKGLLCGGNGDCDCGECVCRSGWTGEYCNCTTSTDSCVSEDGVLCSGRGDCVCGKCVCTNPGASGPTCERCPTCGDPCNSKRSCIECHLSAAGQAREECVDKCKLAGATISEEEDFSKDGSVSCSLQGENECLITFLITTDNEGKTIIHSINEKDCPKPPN
Test: competitive ELISA; captured αvβ6; competitor biotinylated fibronectin
Primed or numbered codes have the meaning given here. The star is where a group is joined. (^19F)FBA = O=C(c1ccc([19F])cc1)*; PEG11′ = not defined here
Reported Metric: IC50 (nM)

binder="{(^19F)FBA}-RSDLTPLF-NH2 [[^19F]FBA-RSDLTPLF-NH2]" obs_value=7
binder="{(^19F)FBA-PEG11′}-RSDLTPLF-{PEG11′-NH2} [[^19F]FBA-PEG11-RSDLTPLF-PEG11-NH2]" obs_value=25
binder="{(^19F)FBA-PEG11′}-RSDLTPLF-NH2 [[^19F]FBA-PEG11-RSDLTPLF-NH2]" obs_value=40
binder="H-RSDLTPLFK((^19F)FBA)-NH2 [H-…([^19F]FBA)-NH2]" obs_value=34
binder="{(^19F)FBA}-RSDLTPLF-{PEG11′-NH2} [[^19F]FBA-RSDLTPLF-PEG11-NH2]" obs_value=40
